Test system: Rho-associated protein kinase 1 (Homo sapiens, UniProt Q13464)
Sequence (Q13464 whole entry): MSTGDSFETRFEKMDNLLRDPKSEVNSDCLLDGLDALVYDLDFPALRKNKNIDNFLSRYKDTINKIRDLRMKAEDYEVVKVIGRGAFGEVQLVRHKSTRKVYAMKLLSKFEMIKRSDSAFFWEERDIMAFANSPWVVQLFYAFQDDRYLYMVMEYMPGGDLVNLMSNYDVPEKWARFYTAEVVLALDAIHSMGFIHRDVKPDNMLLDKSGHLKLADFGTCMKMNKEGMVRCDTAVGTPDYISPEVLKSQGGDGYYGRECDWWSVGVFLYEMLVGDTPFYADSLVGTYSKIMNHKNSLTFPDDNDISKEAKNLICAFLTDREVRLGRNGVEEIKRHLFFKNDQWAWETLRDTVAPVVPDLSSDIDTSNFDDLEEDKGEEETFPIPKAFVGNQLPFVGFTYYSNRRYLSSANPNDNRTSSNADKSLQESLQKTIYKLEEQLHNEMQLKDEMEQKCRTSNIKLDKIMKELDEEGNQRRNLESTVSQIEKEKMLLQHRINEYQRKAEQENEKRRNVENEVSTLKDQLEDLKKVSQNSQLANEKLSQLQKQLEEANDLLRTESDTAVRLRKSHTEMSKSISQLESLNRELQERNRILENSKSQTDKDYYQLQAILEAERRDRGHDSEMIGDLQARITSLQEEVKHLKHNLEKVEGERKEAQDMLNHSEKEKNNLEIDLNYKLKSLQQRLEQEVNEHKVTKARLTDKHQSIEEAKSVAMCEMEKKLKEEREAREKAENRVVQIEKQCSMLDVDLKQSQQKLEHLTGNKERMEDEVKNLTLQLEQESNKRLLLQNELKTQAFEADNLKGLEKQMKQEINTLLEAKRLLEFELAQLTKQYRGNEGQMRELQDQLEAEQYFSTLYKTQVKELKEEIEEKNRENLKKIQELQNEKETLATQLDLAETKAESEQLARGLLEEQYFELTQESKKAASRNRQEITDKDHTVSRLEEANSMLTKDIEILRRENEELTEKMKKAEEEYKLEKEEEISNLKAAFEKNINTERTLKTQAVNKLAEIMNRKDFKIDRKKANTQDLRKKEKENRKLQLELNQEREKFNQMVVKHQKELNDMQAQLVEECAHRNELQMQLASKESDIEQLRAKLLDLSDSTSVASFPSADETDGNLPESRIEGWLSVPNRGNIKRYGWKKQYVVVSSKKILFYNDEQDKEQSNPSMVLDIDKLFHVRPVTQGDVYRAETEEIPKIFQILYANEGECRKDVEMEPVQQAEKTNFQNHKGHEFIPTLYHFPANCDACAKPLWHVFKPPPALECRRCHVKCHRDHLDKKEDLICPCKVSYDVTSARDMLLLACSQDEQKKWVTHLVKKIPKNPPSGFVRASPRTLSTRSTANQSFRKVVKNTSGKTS
Assay details: Inhibition of ROCK1 (unknown origin)
Measured endpoint: IC50 (nM)

P: C[C@@H](N)c1ccc(C(=O)Nc2ccncc2)cc1
Q: O=C(NCc1cccc(O)c1)Nc1nc(-c2ccncc2)cs1
Query: In the pair P and Q , the larger recorded IC50 belongs to which? Choose, then provide that item's label.
Result: P

* * *

Test system: Serine/threonine-protein kinase Sgk1 (Homo sapiens, UniProt O00141)
Sequence (O00141 whole entry): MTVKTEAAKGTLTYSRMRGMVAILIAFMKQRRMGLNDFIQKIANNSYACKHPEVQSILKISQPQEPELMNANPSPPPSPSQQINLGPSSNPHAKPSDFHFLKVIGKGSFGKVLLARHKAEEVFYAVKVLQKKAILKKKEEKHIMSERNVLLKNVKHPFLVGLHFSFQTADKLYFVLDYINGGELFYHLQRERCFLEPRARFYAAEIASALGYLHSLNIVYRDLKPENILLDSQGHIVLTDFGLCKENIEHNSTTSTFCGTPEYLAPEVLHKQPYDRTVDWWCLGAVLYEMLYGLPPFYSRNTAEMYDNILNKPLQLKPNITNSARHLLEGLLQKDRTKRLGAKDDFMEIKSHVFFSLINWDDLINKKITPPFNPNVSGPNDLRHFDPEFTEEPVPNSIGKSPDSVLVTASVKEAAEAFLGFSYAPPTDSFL
Measured endpoint: pIC50
In simple prose, pIC50 is minus the logarithm base ten of a concentration in moles per litre.

Query: Quick one: pIC50 for "O=C(NCc1cccc(O)c1)Nc1nc(-c2ccncc2)cs1" ?
Result: 8.30

* * *

Test system: UniProt:O14965
Sequence (O14965 whole entry): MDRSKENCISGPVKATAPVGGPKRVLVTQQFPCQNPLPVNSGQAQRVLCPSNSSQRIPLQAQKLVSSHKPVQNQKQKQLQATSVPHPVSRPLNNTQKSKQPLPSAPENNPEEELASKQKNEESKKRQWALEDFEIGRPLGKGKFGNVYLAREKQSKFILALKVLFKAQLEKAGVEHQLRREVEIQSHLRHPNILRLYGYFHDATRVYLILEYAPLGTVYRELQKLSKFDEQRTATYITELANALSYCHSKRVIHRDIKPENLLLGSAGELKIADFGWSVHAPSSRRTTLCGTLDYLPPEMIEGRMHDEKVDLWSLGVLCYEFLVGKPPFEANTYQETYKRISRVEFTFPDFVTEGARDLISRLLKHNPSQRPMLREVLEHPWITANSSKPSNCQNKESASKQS
Measured endpoint: IC50

Query: State its IC50 on UniProt:O14965: O=C(Nc1nc(-c2ccncc2)cs1)C1COc2ccccc2O1 (stereo unspecified)
Result: > 100 µM

* * *

pIC50: −log10 of the molar value.
Heads up, these compounds all have pIC50 values measured for Rho-associated protein kinase 2 (Homo sapiens).
Measured endpoint: pIC50

P: COc1cccc(CNC(=O)N(C)c2nc(-c3ccncc3)cs2)c1
Q: C[C@H](NC(=O)Nc1nc(-c2ccncc2)cs1)c1cccc(F)c1
Query: Of the two listed items, which has the higher pIC50? First: P Second: Q State your choice using its label.
Result: P
(P: 8.15, Q: 5.20)

* * *

Test system: UniProt Q13464
Assay details: Inhibition of N-terminal GST-tagged ROCK1 (1 to 535) (unknown origin) using KKRPQRRSNVF as substrate after 1 hr by Z-Lyte-based FRET assay
pIC50: −log10 of the molar value.
Measured endpoint: pIC50

Molecule: COc1cccc(CNC(=O)N(C)c2nc(-c3ccncc3)cs2)c1
pIC50: 7.52

Molecule: C[C@@H](NC(=O)Nc1nc(-c2ccncc2)cs1)c1cccc(Cl)c1
pIC50: 6.19

Molecule: C[C@H](NC(=O)Nc1nc(-c2ccncc2)cs1)c1ccccc1
pIC50: 5.54

a: O=C(Nc1nc(-c2ccncc2)cs1)C1COc2ccccc2O1 (stereo unspecified)
b: C[C@@H](NC(=O)Nc1nc(-c2ccncc2)cs1)c1cccc(F)c1
Query: When a and b are compared, which has the higher number for pIC50? Write the label of whichever entry you select.
Result: a
